Parameter β-Cat FP Hill slope: see the listing below.
- assayedSystem: β-catenin (Homo sapiens, UniProt P35222)
- Sequence (P35222 whole entry): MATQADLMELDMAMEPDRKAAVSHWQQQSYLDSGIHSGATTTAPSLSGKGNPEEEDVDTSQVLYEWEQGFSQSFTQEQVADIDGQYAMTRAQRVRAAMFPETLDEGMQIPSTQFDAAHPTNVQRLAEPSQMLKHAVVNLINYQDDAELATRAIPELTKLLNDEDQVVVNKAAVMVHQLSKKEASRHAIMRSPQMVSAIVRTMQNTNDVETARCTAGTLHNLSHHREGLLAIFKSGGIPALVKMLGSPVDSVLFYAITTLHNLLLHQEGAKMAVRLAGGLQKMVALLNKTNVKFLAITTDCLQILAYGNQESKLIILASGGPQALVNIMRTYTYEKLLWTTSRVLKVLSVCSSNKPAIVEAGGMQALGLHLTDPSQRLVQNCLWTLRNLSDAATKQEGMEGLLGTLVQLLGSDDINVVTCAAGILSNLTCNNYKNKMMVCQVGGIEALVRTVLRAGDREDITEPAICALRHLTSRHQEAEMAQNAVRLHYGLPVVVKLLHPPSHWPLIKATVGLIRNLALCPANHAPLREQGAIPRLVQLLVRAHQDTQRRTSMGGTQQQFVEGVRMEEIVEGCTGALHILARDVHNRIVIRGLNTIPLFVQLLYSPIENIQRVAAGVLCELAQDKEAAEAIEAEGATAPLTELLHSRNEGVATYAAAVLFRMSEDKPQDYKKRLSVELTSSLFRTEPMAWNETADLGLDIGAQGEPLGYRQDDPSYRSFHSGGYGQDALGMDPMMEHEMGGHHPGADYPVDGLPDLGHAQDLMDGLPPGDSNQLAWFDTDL
- experimentSummary: KD50 measurement using competitive fluorescence polarization (FP) with labelled TCF4
- Format: binding
- measurementSetup: fluorescence polarization, β-catenin
Where a SMILES comes first, the peptide text is derived from it.
measurementLabel: β-Cat FP Hill slope

compound	measurementLabel	measuredResult
CC[C@H](C)[C@H](NC(=O)[C@H](CC(C)C)NC(=O)[C@H](Cc1ccccc1)NC(=O)[C@@H](N)Cc1c[nH]c2ccccc12)C(=O)N[C@@H](CO)C(=O)N[C@@H](Cc1ccccc1)C(=O)N[C@@H](Cc1c[nH]c2ccccc12)C(=O)O [compound 110] (H-WFLISFW-OH)	β-Cat FP Hill slope	3
CC[C@H](C)[C@H](NC(=O)[C@H](CC(C)C)NC(=O)[C@H](Cc1ccccc1)NC(=O)[C@@H](N)Cc1c[nH]c2ccccc12)C(=O)N[C@@H](CO)C(=O)N[C@H](C(=O)N[C@@H](Cc1c[nH]c2ccccc12)C(=O)O)[C@@H](C)O [compound 103] (H-WFLISTW-OH)	β-Cat FP Hill slope	1.71
CC[C@H](C)[C@H](NC(=O)[C@H](Cc1c[nH]c2ccccc12)NC(=O)[C@@H](N)CCSC)C(=O)N[C@@H](CC(C)C)C(=O)N[C@H](C(=O)N[C@@H](CS)C(=O)NC(C)(Cc1ccccc1)C(=O)N[C@@H](Cc1c[nH]c2ccccc12)C(=O)NCC(=O)O)[C@@H](C)CC (stereo partly drawn) [compound 121] (HELM PEPTIDE1{M.W.I.L.I.C.[CC(Cc1ccccc1)(N[*:1])C(=O)[*:2]].W.G}$$$$V2.0)	β-Cat FP Hill slope	0.74
CC[C@H](C)[C@@H]1NC(=O)[C@H](CC(C)C)NC(=O)[C@H](Cc2ccccc2)NC(=O)[C@H](Cc2c[nH]c3ccccc23)NC(=O)[C@H](CCSC)NC(=O)CCCCCNC(=O)C[C@@H](C(=O)O)NC(=O)[C@H](Cc2c[nH]c3ccccc23)NC(=O)[C@H](C)NC(=O)[C@H](CS)NC1=O [compound 192] (HELM PEPTIDE1{[O=C(CCCCCN[*:1])[*:2]].M.W.F.L.I.C.A.W.D}$PEPTIDE1,PEPTIDE1,1:R1-10:R3$$$V2.0)	β-Cat FP Hill slope	1.33
CC[C@H](C)[C@H](NC(=O)[C@H](CC(C)C)NC(=O)[C@@H](NC(=O)C(C)(Cc1c[nH]c2ccccc12)NC(=O)[C@@H](N)CCSC)[C@@H](C)CC)C(=O)N[C@@H](CS)C(=O)N[C@@H](Cc1ccccc1)C(=O)N[C@@H](Cc1c[nH]c2ccccc12)C(=O)NCC(=O)O (stereo partly drawn) [compound 132] (HELM PEPTIDE1{M.[CC(Cc1c[nH]c2ccccc12)(N[*:1])C(=O)[*:2]].I.L.I.C.F.W.G}$$$$V2.0)	β-Cat FP Hill slope	0.7
CC[C@H](C)[C@H](NC(=O)[C@H](CC(C)C)NC(=O)[C@H](Cc1ccccc1)NC(=O)[C@H](Cc1c[nH]c2ccccc12)NC)C(=O)N[C@@H](CO)C(=O)N[C@@H](Cc1ccccc1)C(=O)N[C@@H](Cc1c[nH]c2ccccc12)C(N)=O [compound 102] (HELM PEPTIDE1{[meW].F.L.I.S.F.W.[am]}$$$$V2.0)	β-Cat FP Hill slope	0.7
CC[C@H](C)[C@H](NC(=O)[C@H](CC(C)C)NC(=O)[C@@H](NC(=O)[C@H](Cc1c[nH]c2ccccc12)NC(=O)[C@@H](N)Cc1c[nH]c2ccccc12)[C@@H](C)CC)C(=O)N[C@@H](CO)C(=O)N[C@@H](Cc1ccccc1)C(=O)N[C@@H](Cc1c[nH]c2ccccc12)C(=O)NCC(=O)O [compound 127] (H-WWILISFWG-OH)	β-Cat FP Hill slope	1
CC[C@H](C)[C@H](NC(=O)[C@H](CC(C)C)NC(=O)[C@H](Cc1ccccc1)NC(=O)[C@H](Cc1c[nH]c2ccccc12)NC(=O)[C@H](CCSC)NC(=O)[C@H](CCCNC(=N)N)NC(=O)CNC(=O)[C@@H](N)CCSC)C(=O)N[C@@H](CO)C(=O)N[C@@H](Cc1ccccc1)C(=O)N[C@@H](Cc1c[nH]c2ccccc12)C(=O)NCC(=O)O [compound 67] (H-MGRMWFLISFWG-OH)	β-Cat FP Hill slope	0.99
CCOC[C@H](NC(=O)[C@H](CO)NC(=O)[C@@H](NC(=O)[C@H](CC(C)C)NC(=O)[C@H](Cc1ccccc1)NC(=O)[C@@H](N)Cc1c[nH]c2ccccc12)[C@@H](C)CC)C(=O)N[C@@H](Cc1c[nH]c2ccccc12)C(=O)O [compound 104] (H-WFLISS(Et)W-OH)	β-Cat FP Hill slope	3
CC[C@H](C)[C@H](NC(=O)[C@H](CC(C)C)NC(=O)[C@H](Cc1ccccc1)NC(=O)[C@H](Cc1c[nH]c2ccccc12)NC(=O)[C@@H](N)CCSC)C(=O)N[C@@H](CS)C(=O)N[C@@H](Cc1cncn1C)C(=O)N[C@@H](Cc1c[nH]c2ccccc12)C(=O)NCC(=O)O [compound 135] (HELM PEPTIDE1{M.W.F.L.I.C.[Cn1cncc1C[C@H](N[*:1])C(=O)[*:2]].W.G}$$$$V2.0)	β-Cat FP Hill slope	0.7
CC[C@H](C)[C@H](NC(=O)[C@H](CC(C)C)NC(=O)[C@H](Cc1ccccc1)NC(=O)[C@H](Cc1c[nH]c2ccccc12)NC(=O)[C@@H](N)CCSC)C(=O)N[C@@H](CO)C(=O)N[C@@H](Cc1ccccc1)C(=O)N[C@@H](Cc1c[nH]c2ccccc12)C(=O)N[C@@H](C)C(=O)O [compound 7] (H-MWFLISFWA-OH)	β-Cat FP Hill slope	0.5
CC[C@H](C)[C@@H]1NC(=O)[C@H](CC(C)C)NC(=O)[C@H](Cc2ccccc2)NC(=O)[C@H](Cc2c[nH]c3ccccc23)NC(=O)[C@@H](N)CCCCNC(=O)C[C@@H](C(=O)O)NC(=O)[C@H](Cc2c[nH]c3ccccc23)NC(=O)[C@H](C)NC(=O)[C@H](CS)NC1=O [compound 168] (HELM PEPTIDE1{K.W.F.L.I.C.A.W.D}$PEPTIDE1,PEPTIDE1,1:R3-9:R3$$$V2.0)	β-Cat FP Hill slope	0.7
